System: NCI-H2170
Experimental details: relative viability (nuclei count vs DMSO), 5 days (fraction); higher = more cells survive
Cond: first compound 1.265 µM
relative viability under 0.4 gets 1.0, anything at or over 0.4 gets 0.0.

{"Molecule": "COc1cc(N2CCC(C(N)=O)CC2)ccc1Nc1nc(N)c(Cl)c(Nc2ccccc2S(=O)(=O)C(C)C)n1 [HG-5-88-01] + COc1cccc2cc(-c3nc([C@H]4CC[C@H](C(=O)O)CC4)n4ncnc(N)c34)[nH]c12 [OSI-027] (partner 0.5 µM)", "Assigned class": 1.0}
{"Molecule": "Clc1ccc(Nc2nnc(Cc3ccncc3)c3ccccc23)cc1 [Vatalanib] + CC(=O)c1c(C)c2cnc(Nc3ccc(N4CCNCC4)cn3)nc2n(C2CCCC2)c1=O [Palbociclib] (partner 0.5 µM)", "Assigned class": 1.0}
{"Molecule": "COc1cc(N2CCC(C(N)=O)CC2)ccc1Nc1nc(N)c(Cl)c(Nc2ccccc2S(=O)(=O)C(C)C)n1 [HG-5-88-01] + CC(=O)c1c(C)c2cnc(Nc3ccc(N4CCNCC4)cn3)nc2n(C2CCCC2)c1=O [Palbociclib] (partner 0.5 µM)", "Assigned class": 1.0}
{"Molecule": "Clc1ccc(Nc2nnc(Cc3ccncc3)c3ccccc23)cc1 [Vatalanib] + CS(=O)(=O)N1CCN(Cc2cc3nc(-c4cccc5[nH]ncc45)nc(N4CCOCC4)c3s2)CC1 [Pictilisib] (partner 1 µM)", "Assigned class": 1.0}
{"Molecule": "Clc1ccc(Nc2nnc(Cc3ccncc3)c3ccccc23)cc1 [Vatalanib] + COc1cccc2cc(-c3nc([C@H]4CC[C@H](C(=O)O)CC4)n4ncnc(N)c34)[nH]c12 [OSI-027] (partner 0.5 µM)", "Assigned class": 0.0}
{"Molecule": "Clc1ccc(Nc2nnc(Cc3ccncc3)c3ccccc23)cc1 [Vatalanib] + NC(=O)Nc1cc(-c2cccc(F)c2)sc1C(=O)N[C@H]1CCCNC1 [AZD7762] (partner 0.2 µM)", "Assigned class": 0.0}
{"Molecule": "Clc1ccc(Nc2nnc(Cc3ccncc3)c3ccccc23)cc1 [Vatalanib] + O=C(CCCCCCC(=O)Nc1ccccc1)NO [Vorinostat] (partner 1 µM)", "Assigned class": 0.0}

###

Test system: NCI-H838
Experimental details: relative viability (nuclei count vs DMSO), 5 days (fraction); higher = more cells survive
Cond: first compound 0.1265 µM
Catalogue of compounds with associated relative viability

{"Compound": "COc1cc(N2CCC(C(N)=O)CC2)ccc1Nc1nc(N)c(Cl)c(Nc2ccccc2S(=O)(=O)C(C)C)n1 [HG-5-88-01] + CC(=O)c1c(C)c2cnc(Nc3ccc(N4CCNCC4)cn3)nc2n(C2CCCC2)c1=O [Palbociclib] (partner 0.5 µM)", "relative viability": 0.207}
{"Compound": "Clc1ccc(Nc2nnc(Cc3ccncc3)c3ccccc23)cc1 [Vatalanib] + O=C(CCCCCCC(=O)Nc1ccccc1)NO [Vorinostat] (partner 1 µM)", "relative viability": 0.761}
{"Compound": "C[C@@H]1CN(CC(=O)Nc2ccc3c(c2)Cc2cccc(-c4cc(=O)cc(N5CCOCC5)o4)c2S3)C[C@H](C)O1 + CS(=O)(=O)N1CCN(Cc2cc3nc(-c4cccc5[nH]ncc45)nc(N4CCOCC4)c3s2)CC1 [Pictilisib] (partner 1 µM)", "relative viability": 0.402}
{"Compound": "C[C@@H]1CN(CC(=O)Nc2ccc3c(c2)Cc2cccc(-c4cc(=O)cc(N5CCOCC5)o4)c2S3)C[C@H](C)O1 + Cc1nc(Nc2ncc(C(=O)Nc3c(C)cccc3Cl)s2)cc(N2CCN(CCO)CC2)n1 [Dasatinib] (partner 0.075 µM)", "relative viability": 0.233}
{"Compound": "Clc1ccc(Nc2nnc(Cc3ccncc3)c3ccccc23)cc1 [Vatalanib] + CCNC(=O)c1noc(-c2cc(C(C)C)c(O)cc2O)c1-c1ccc(CN2CCOCC2)cc1 [Luminespib] (partner 0.01 µM)", "relative viability": 0.267}
{"Compound": "COc1cc(N2CCC(C(N)=O)CC2)ccc1Nc1nc(N)c(Cl)c(Nc2ccccc2S(=O)(=O)C(C)C)n1 [HG-5-88-01] + Cc1nc(NC(=O)N2CCC[C@H]2C(N)=O)sc1-c1ccnc(C(C)(C)C(F)(F)F)c1 [Alpelisib] (partner 2 µM)", "relative viability": 1.1}
{"Compound": "Clc1ccc(Nc2nnc(Cc3ccncc3)c3ccccc23)cc1 [Vatalanib] + C[C@]1(O)C[C@@H](c2nc(-c3ccc4ccc(-c5ccccc5)nc4c3)c3c(N)nccn32)C1 [Linsitinib] (partner 1 µM)", "relative viability": 0.994}
{"Compound": "Clc1ccc(Nc2nnc(Cc3ccncc3)c3ccccc23)cc1 [Vatalanib] + N=C(N)NC(=N)NCCc1ccccc1 [Phenformin] (partner 250 µM)", "relative viability": 0.476}
